% inhibition at 1 × 10^-6 M values for the compounds below.
SYSTEM TESTED: Rat brain protein farnesyltransferase (Rattus norvegicus, UniProt Q02293+Q04631)
Construct: Rat brain protein farnesyltransferase activity is measured; from tissue; host or cells: rat brain
Sequence (Q02293 whole entry, one chain of several): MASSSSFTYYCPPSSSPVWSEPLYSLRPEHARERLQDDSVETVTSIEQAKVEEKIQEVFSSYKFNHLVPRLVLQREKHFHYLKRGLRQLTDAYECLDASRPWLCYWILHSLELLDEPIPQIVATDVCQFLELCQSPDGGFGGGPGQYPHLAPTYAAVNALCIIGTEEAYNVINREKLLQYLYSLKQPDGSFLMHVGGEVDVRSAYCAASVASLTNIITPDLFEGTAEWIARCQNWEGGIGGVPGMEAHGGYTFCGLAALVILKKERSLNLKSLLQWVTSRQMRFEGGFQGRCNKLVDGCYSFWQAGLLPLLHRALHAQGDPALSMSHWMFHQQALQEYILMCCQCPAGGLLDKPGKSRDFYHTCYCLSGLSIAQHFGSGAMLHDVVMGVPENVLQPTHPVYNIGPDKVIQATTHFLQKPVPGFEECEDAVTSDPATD
ASSAY TEXT: % inhibition of farnesylation, scintillation proximity assay with biotin-K Ras B fragment
Format: biochemical
CONDITION INFO: Table 2; 1 × 10^-6 M
Experimental: The ability of the compounds of the invention to inhibit protein farnesyltransferase or protein geranylgeranyltransferase can be measured according to the method of Moores, et al., J. Biol. Chem. 266: 14603 (1991) or the method of Vogt, et al., J. Biol. Chem. 270:660-664 (1995). […] In addition, in vitro inhibition of protein farnesyltransferase may be measured by the following procedure. […] The % inhibition of protein farnesyltransferase was determined for representative compounds of the invention.
Field format: number, assumed %, no unit text.

Input line: I have this compound here, CSCC[C@H](NC(=O)c1ccc(CN(CC23CC4CC(CC(C4)C2)C3)c2ccccc2)cc1-c1ccccc1C)C(=O)O [Example 510] , and I need its recorded % inhibition at 1 × 10^-6 M.
Output line: 84

Input line: Returns the measured % inhibition at 1 × 10^-6 M for the input compound. Input: CSCC[C@H](NC(=O)c1ccc(CN(Cc2ccco2)C(C)C)cc1-c1ccccc1C)C(=O)O [Example 831]
Output line: 92

Input line: Item under review: CSCC[C@H](NC(=O)c1ccc(CCCC(=O)c2ccc3ccccc3c2)cc1-c1ccccc1C)C(=O)O [Example 473] . Reported % inhibition at 1 × 10^-6 M?
Output line: 96

Input line: Consider the compound shown here: CSCC[C@H](NC(=O)c1ccc(NC(=O)[C@@H]2CSCN2)cc1-c1ccccc1)C(=O)O [Example 165] What is its recorded % inhibition at 1 × 10^-6 M?
Output line: 74

###

SYSTEM TESTED: Rat brain protein farnesyltransferase (Rattus norvegicus, UniProt Q02293+Q04631)
Construct: Rat brain protein farnesyltransferase activity is measured; from tissue; host or cells: rat brain
ASSAY TEXT: % inhibition of farnesylation, scintillation proximity assay with biotin-K Ras B fragment
Type: biochemical
CONDITION INFO: Table 4; 1 × 10^-8 M
Label rule, in plain words: % inhibition at 1 × 10^-8 M of 90% and up is 1 (yes), under 90% is 0 (no).

Recorded results for 4 compounds are shown here.
| SMILES TEXT | CLASS ASSIGNMENT |
| --- | --- |
| CSCC[C@H](NC(=O)c1ccc(CN2CCC[C@H]2COc2ccccc2)cc1-c1ccccc1C)C(=O)O | 0 (no) |
| CCSC[C@H](CC(C)C)NCc1ccc(C(=O)N[C@@H](CCSC)C(=O)O)c(-c2ccccc2C)c1 | 0 (no) |
| CSCC[C@H](NC(=O)c1ccc(CN(Cc2ccccc2)c2cncnc2)cc1-c1ccccc1C)C(=O)O | 1 (yes) |
| CSCC[C@H](NC(=O)c1ccc(CN[C@H](CSc2ccccc2C)CC2CCCCC2)cc1-c1ccccc1C)C(=O)O | 1 (yes) |

Input line: Is % inhibition at 1 × 10^-8 M for CCCCS(=O)(=O)N(CCC1CCCCC1)Cc1ccc(C(=O)N[C@@H](CCSC)C(=O)O)c(-c2ccccc2C)c1 at or above 90%?
Output line: 1 (yes)

Input line: Reported % inhibition at 1 × 10^-8 M at or above 90%? CSCC[C@H](NC(=O)c1ccc(CN(c2ccccc2)S(=O)(=O)c2ccc(C(F)(F)F)cc2)cc1-c1ccccc1C)C(=O)O
Output line: 0 (no)

###

SYSTEM TESTED: Rat brain protein farnesyltransferase (Rattus norvegicus, UniProt Q02293+Q04631)
Construct: Rat brain protein farnesyltransferase activity is measured; from tissue; host or cells: rat brain
ASSAY TEXT: % inhibition of farnesylation, scintillation proximity assay with biotin-K Ras B fragment
Assay type: biochemical
CONDITION INFO: read-out: % inhibition at 1 × 10^-7 M; Table 3; 1 × 10^-7 M
Counter-ions that a name gives are not always drawn.
Recorded measurements of inhibition at 0.1 µM, one per entry
Report the figure in % without appending any unit label.

# annotated cases, reported inhibition at 0.1 µM shown
| COMPOUND | ENDPOINT LABEL | SCALE UNIT | ASSAY RESULT |
| --- | --- | --- | --- |
| CSCC[C@H](NC(=O)c1ccc(COCc2ccc(C)o2)cc1-c1ccccc1C)C(=O)O [Example 532] | inhibition at 0.1 µM | % | 88 |
| COc1ccccc1CCOCc1ccc(C(=O)N[C@@H](CCSC)C(=O)O)c(-c2ccccc2C)c1 [Example 589] | inhibition at 0.1 µM | % | 91 |
| CSCC[C@H](NC(=O)c1ccc(COCCCCc2ccccc2)cc1-c1ccccc1C)C(=O)O [Example 601] | inhibition at 0.1 µM | % | 92 |
| CSCC[C@H](NC(=O)c1ccc(CSc2ccc(C)cc2C)cc1-c1ccccc1C)C(=O)O [Example 741] | inhibition at 0.1 µM | % | 89 |

Input line: I have this compound here, CSCC[C@H](NC(=O)c1ccc(COCc2ccccc2)cc1-c1ccccc1C)C(=O)NS(=O)(=O)c1ccccc1 [Example 580] , and I need its recorded inhibition at 0.1 µM.
Output line: 90

Input line: // inhibition at 0.1 µM lookup, key: CSCC[C@H](NC(=O)c1ccc(COCc2cccc(N(C)C)c2)cc1-c1ccccc1C)C(=O)O [Example 941, lithium salt]
Output line: 90

###

SYSTEM TESTED: Rat brain protein farnesyltransferase (Rattus norvegicus, UniProt Q02293+Q04631)
Construct: Rat brain protein farnesyltransferase activity is measured; from tissue; host or cells: rat brain
ASSAY TEXT: % inhibition of farnesylation, scintillation proximity assay with biotin-K Ras B fragment
Format: biochemical
CONDITION INFO: Table 2; 1 × 10^-6 M
ENDPOINT LABEL: % inhibition at 1 × 10^-6 M
State the result as a value with its unit after it.

| SMILES TEXT | ASSAY RESULT |
| --- | --- |
| CSCC[C@H](NC(=O)c1ccc(CN(Cc2ccccc2)c2ccccc2C(C)=O)cc1-c1ccccc1C)C(=O)O | 92% |

Input line: Consider the compound CSCC[C@H](NC(=O)c1ccc(CN(CCO)c2ccccc2)cc1-c1ccccc1)C(=O)O and give its measured % inhibition at 1 × 10^-6 M.
Output line: 72%

Input line: Quick check: % inhibition at 1 × 10^-6 M of CSCC[C@H](NC(=O)c1ccc(CN(Cc2ccccc2)Cc2ccccc2)cc1-c1ccccc1C)C(=O)O ?
Output line: 94%

Input line: % inhibition at 1 × 10^-6 M for CSCC[C@H](NC(=O)c1ccc(-c2cccc(-c3ccccc3)c2)cc1-c1ccccc1C)C(=O)[O-].[Li+] ?
Output line: 70%

###

SYSTEM TESTED: Rat brain protein farnesyltransferase (Rattus norvegicus, UniProt Q02293+Q04631)
Construct: Rat brain protein farnesyltransferase activity is measured; from tissue; host or cells: rat brain
ASSAY TEXT: % inhibition of farnesylation, scintillation proximity assay with biotin-K Ras B fragment
Assay type: biochemical
CONDITION INFO: Table 1; 1 × 10^-5 M
ENDPOINT LABEL: % inhibition at 1 × 10^-5 M (%)
Expressed in %, but write only the number.

Reference set (2 entries):
| MOLECULE | % inhibition at 1 × 10^-5 M / % |
| --- | --- |
| COc1cc2c(cc1OC)C(CNCc1ccc(C(=O)N[C@@H](CCSC)C(=O)O)c(-c3ccccc3)c1)=CC(C1CCCCC1)C2 (stereo partly drawn) [Example 659] | 55 |
| CSCC[C@H](NC(=O)c1ccc(CNc2cc(C)ns2)cc1-c1ccccc1)C(=O)O [Example 373] | 76 |

Now for another entry.
Input line: If you can, please state the reported % inhibition at 1 × 10^-5 M value of CSCC[C@H](NC(=O)c1ccc(CN[C@H](CC2CCCCC2)[C@H](O)[C@H](O)CC(C)C)cc1-c1ccccc1)C(=O)O [Example 715] .
Output line: 67

###

SYSTEM TESTED: Rat brain protein farnesyltransferase (Rattus norvegicus, UniProt Q02293+Q04631)
Construct: Rat brain protein farnesyltransferase activity is measured; from tissue; host or cells: rat brain
ASSAY TEXT: % inhibition of farnesylation, scintillation proximity assay with biotin-K Ras B fragment
Assay type: biochemical
CONDITION INFO: Table 4; 1 × 10^-8 M
Consider the following compounds and their measured % inhibition at 1 × 10^-8 M readings.
Remember to put the unit after the number in your answer.

In the examples that follow, each entry is paired with its recorded % inhibition at 1 × 10^-8 M.
| COMPOUND | % inhibition at 1 × 10^-8 M |
| --- | --- |
| CSCC[C@H](NC(=O)c1ccc(CN(CCC2CCCCC2)Cc2cncs2)cc1-c1ccccc1C)C(=O)O [Example 986] | 95% |
| CSCC[C@H](NC(=O)c1ccc(CN(Cc2ccccc2)c2ccc([N+](=O)[O-])cc2)cc1-c1ccccc1C)C(=O)O [Example 843] | 96% |
| CSCC[C@H](NC(=O)c1ccc(CN(Cc2ccccc2)c2cccc(C(C)=O)c2)cc1-c1ccccc1C)C(=O)O [Example 845] | 85% |

Input line: Hi! What's the reported % inhibition at 1 × 10^-8 M for CSCC[C@H](NC(=O)c1ccc(CN(C(C)=O)C(CC2CCCCC2)CC2CCCCC2)cc1-c1ccccc1C)C(=O)O [Example 909] on Rat brain protein farnesyltransferase (Rattus norvegicus, UniProt Q02293+Q04631)?
Output line: 79%
